Molecular target: bovine trypsin (Bos taurus)
Construct: purchased Sigma-Aldrich T8003
Sequence (P00760 24-246): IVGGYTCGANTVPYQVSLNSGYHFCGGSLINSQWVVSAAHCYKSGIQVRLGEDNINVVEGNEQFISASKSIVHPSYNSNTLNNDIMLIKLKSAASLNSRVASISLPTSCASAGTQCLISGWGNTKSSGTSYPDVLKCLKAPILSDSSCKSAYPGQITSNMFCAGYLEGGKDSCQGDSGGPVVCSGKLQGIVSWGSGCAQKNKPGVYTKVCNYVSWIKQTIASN
Assay: Trypsin inhibition assay (proteolytic activity on BApNA)
Assay type: biochemical
Settings: Concentration 1600 nM; fraction of uninhibited activity; read-out: mean (Figure 3c, dose-response, relative trypsin activity)
readout name: remaining activity at 1.6 µM (%)
Return type: number; implicit unit %.

GET /values?readout=remaining activity at 1.6 µM&system=bovine trypsin (Bos taurus)&item= N=C(N)c1ccc(CNC(=S)Nc2cccc(I)c2)cc1 97.5

GET /values?readout=remaining activity at 1.6 µM&system=bovine trypsin (Bos taurus)&item= S=C=Nc1ccccc1I [Compound B, 2-iodophenyl isothiocyanate, reference compound] 100

GET /values?readout=remaining activity at 1.6 µM&system=bovine trypsin (Bos taurus)&item= N=C(N)c1ccc(CNCc2ccc(C(=O)NCCNC(=S)Nc3cccc(I)c3)cc2)cc1 81.2

GET /values?readout=remaining activity at 1.6 µM&system=bovine trypsin (Bos taurus)&item= N=C(N)c1ccc(CNC(=O)C2CCC(C(=O)NCCNC(=S)Nc3cccc(I)c3)CC2)cc1 (centres unmarked) 56.5

GET /values?readout=remaining activity at 1.6 µM&system=bovine trypsin (Bos taurus)&item= N=C(N)c1ccc(CN)cc1 [4-Aminomethyl benzamidine, 4-aminomethyl benzamidine, reference compound] 106

====

Biological target: MMP-2 (Homo sapiens, UniProt P08253)
Construct: purchased Sino Biological 10082-HNAH
Sequence (P08253 110-660): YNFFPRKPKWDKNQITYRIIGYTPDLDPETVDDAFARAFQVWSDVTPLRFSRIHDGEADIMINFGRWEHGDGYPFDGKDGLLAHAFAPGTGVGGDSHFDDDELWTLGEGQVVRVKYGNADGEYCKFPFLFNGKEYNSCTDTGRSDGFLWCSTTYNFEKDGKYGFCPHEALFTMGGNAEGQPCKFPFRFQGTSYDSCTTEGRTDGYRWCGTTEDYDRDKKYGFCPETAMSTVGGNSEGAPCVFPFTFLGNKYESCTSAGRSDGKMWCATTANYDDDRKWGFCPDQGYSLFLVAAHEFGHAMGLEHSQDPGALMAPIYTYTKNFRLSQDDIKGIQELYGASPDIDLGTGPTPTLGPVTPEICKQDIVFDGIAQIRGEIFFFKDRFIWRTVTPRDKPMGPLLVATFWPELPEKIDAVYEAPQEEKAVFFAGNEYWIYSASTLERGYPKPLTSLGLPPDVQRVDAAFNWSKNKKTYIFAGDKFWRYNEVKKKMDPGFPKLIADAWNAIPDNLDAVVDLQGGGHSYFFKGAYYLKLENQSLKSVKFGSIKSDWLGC
Assay: MMP-2 inhibition assay (fluorogenic peptide substrate)
Format: biochemical
Details: MMP-2; concentration 125.00 µM
readout name: remaining activity (%)
Give only the figure.

Sample Cn1c(O)nc2cc(C(=O)NCCCCCCCCNC(=O)CNC(=O)NC34CC5CC(CC(C5)C3)C4)cnc21 — what was its remaining activity (%)? 99.42

Sample Cc1cc(=O)[nH]c(-n2nc(C)c(CCC(=O)NCCOCCOCCNC(=O)c3cnc4c(c3)nc(O)n4C)c2C)n1 — what was its remaining activity (%)? 84.64

Sample Cc1cc(=O)[nH]c(-n2nc(C)c(CCC(=O)NCCSCC(=O)NCCNC(=O)c3cnc4c(c3)nc(O)n4C)c2C)n1 — what was its remaining activity (%)? 58.31

====

target: MMP-9 (Homo sapiens, UniProt P14780); construct: purchased Sino Biological 10327-HNAH; assay: MMP-9 inhibition assay (fluorogenic peptide substrate); format: biochemical; design: scale not given here; settings: MMP-9, concentration 243.80 µM
Sequence (P14780 107-707 limits assumed): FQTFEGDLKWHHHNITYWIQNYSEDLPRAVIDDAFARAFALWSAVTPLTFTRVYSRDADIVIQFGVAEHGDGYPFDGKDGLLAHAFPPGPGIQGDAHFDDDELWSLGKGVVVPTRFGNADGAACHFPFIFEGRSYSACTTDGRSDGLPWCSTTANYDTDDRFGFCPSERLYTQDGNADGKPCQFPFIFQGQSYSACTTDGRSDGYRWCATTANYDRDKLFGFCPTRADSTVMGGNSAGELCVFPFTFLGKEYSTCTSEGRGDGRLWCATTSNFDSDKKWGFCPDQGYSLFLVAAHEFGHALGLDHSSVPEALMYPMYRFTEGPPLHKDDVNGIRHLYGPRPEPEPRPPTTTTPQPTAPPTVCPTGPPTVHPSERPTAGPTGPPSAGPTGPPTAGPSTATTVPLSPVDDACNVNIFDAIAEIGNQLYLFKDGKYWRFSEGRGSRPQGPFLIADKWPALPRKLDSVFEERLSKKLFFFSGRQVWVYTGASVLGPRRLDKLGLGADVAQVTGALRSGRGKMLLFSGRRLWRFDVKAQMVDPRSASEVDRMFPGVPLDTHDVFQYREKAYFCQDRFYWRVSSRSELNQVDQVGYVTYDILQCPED
readout name: remaining enzyme activity (% of control)

GET /values?readout=remaining enzyme activity (% of control)&system=MMP-9 (Homo sapiens, UniProt P14780)&item= O=C(Cn1cnc2c(oc3ccccc32)c1=O)NCc1c[nH]nn1 [182+787 Linker 1] 22.66

GET /values?readout=remaining enzyme activity (% of control)&system=MMP-9 (Homo sapiens, UniProt P14780)&item= O=C(CCC(=O)NCc1c[nH]nn1)NCCCCCCCCNC(=O)Cn1cnc2c(oc3ccccc32)c1=O [182+787 Linker 4] 34.94

GET /values?readout=remaining enzyme activity (% of control)&system=MMP-9 (Homo sapiens, UniProt P14780)&item= O=C(Cn1cnc2c(oc3ccccc32)c1=O)NCCCCCCCCNC(=O)c1cncc(O)c1 [182+828 Linker 4] 49.14

GET /values?readout=remaining enzyme activity (% of control)&system=MMP-9 (Homo sapiens, UniProt P14780)&item= O=C(CCC(=O)NCc1c[nH]nn1)NCCOCCOCCNC(=O)Cn1cnc2c(oc3ccccc32)c1=O [182+787 Linker 10] 28.00

====

target: MMP-9 (Homo sapiens); construct: purchased Sino Biological 10327-HNAH; experiment: MMP-9 inhibition assay (fluorogenic peptide substrate); type: biochemical; set-up: scale not given here; details: MMP-9; concentration 9.75 µM
Exercise: for every item that follows, state its recorded remaining enzyme activity (% of control).
Give only the figure.

Sample Cc1cc(=O)[nH]c(-n2nc(C)c(CCC(=O)NCCCCCCCCNC(=O)CCC(=O)NCc3c[nH]nn3)c2C)n1 — what was its remaining enzyme activity (% of control)? 91.12

Sample O=C(CNC(=O)NC12CC3CC(CC(C3)C1)C2)NCCCCCCCCNC(=O)c1cncc(O)c1 — what was its remaining enzyme activity (% of control)? 96.31

Sample Cc1cc(=O)[nH]c(-n2nc(C)c(CCC(=O)NCCOCCOCCNC(=O)c3cncc(O)c3)c2C)n1 — what was its remaining enzyme activity (% of control)? 98.89

Sample O=C(CNC(=O)NC12CC3CC(CC(C3)C1)C2)NCc1c[nH]nn1 — what was its remaining enzyme activity (% of control)? 95.98

Sample O=C(CNC(=O)NC12CC3CC(CC(C3)C1)C2)NCCSCC(=O)NCc1c[nH]nn1 — what was its remaining enzyme activity (% of control)? 109.06

Sample O=C(CCCCCCC(=O)NCC12CC3CC(CC(C3)C1)C2)NCc1c[nH]nn1 — what was its remaining enzyme activity (% of control)? 100.64

Sample Cc1cc(=O)[nH]c(-n2nc(C)c(CCC(=O)NCCSCC(=O)NCc3c[nH]nn3)c2C)n1 — what was its remaining enzyme activity (% of control)? 96.92

====

Biological target: MMP-2 (Homo sapiens, UniProt P08253)
Construct: purchased Sino Biological 10082-HNAH
Sequence (P08253 110-660): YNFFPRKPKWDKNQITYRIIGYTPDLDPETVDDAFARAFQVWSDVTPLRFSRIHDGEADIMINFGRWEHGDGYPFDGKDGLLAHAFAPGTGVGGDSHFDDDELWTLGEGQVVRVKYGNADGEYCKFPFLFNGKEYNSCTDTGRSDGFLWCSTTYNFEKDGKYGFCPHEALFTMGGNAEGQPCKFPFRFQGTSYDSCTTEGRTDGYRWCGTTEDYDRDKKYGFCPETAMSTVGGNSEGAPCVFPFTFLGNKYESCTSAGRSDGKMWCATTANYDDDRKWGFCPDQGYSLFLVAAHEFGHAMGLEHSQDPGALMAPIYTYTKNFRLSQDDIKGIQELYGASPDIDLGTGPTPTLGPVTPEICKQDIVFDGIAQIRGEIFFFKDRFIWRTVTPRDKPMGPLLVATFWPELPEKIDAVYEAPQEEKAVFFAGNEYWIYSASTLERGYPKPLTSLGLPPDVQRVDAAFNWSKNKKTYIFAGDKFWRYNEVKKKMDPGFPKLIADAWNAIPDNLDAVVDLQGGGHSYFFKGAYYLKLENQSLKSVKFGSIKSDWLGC
Test: MMP-2 inhibition assay (fluorogenic peptide substrate)
Assay type: biochemical
Conditions: MMP-2; concentration 0.12 µM
Exercise: for every item that follows, state its recorded remaining activity (%).
Give only the figure.

Sample Cn1c(O)nc2cc(C(=O)NCC34CC5CC(CC(C5)C3)C4)cnc21 — what was its remaining activity (%)? 104.18

Sample Cc1cc(=O)[nH]c(-n2nc(C)c(CCC(=O)NCCCCCCCCNC(=O)c3cnc4c(c3)nc(O)n4C)c2C)n1 — what was its remaining activity (%)? 91.52

Sample Cc1cc(=O)[nH]c(-n2nc(C)c(CCC(=O)NCCNC(=O)CC(=O)C=CCCCCNC(=O)c3cnc4c(c3)nc(O)n4C)c2C)n1 — what was its remaining activity (%)? 103.13

Sample Cn1c(O)nc2cc(C(=O)NCCCC/C=C/C(=O)CC(=O)NCC34CC5CC(CC(C5)C3)C4)cnc21 — what was its remaining activity (%)? 102.70

Sample Cc1cc(=O)[nH]c(-n2nc(C)c(CCC(=O)NCCNC(=O)c3cnc4c(c3)nc(O)n4C)c2C)n1 — what was its remaining activity (%)? 100.61

Sample Cn1c(O)nc2cc(C(=O)NCCOCCOCCNC(=O)CNC(=O)NC34CC5CC(CC(C5)C3)C4)cnc21 — what was its remaining activity (%)? 101.73

Sample Cn1c(O)nc2cc(C(=O)NCCCCCCCCNC(=O)CNC(=O)NC34CC5CC(CC(C5)C3)C4)cnc21 — what was its remaining activity (%)? 90.87

Sample Cc1cc(=O)[nH]c(-n2nc(C)c(CCC(=O)NCCSCC(=O)NCCNC(=O)c3cnc4c(c3)nc(O)n4C)c2C)n1 — what was its remaining activity (%)? 98.54

Sample Cn1c(O)nc2cc(C(=O)NCCSCC(=O)NCC34CC5CC(CC(C5)C3)C4)cnc21 — what was its remaining activity (%)? 102.86

Sample Cc1cc(=O)[nH]c(-n2nc(C)c(CCC(=O)NCCOCCOCCNC(=O)c3cnc4c(c3)nc(O)n4C)c2C)n1 — what was its remaining activity (%)? 88.40
